Taken from PubChem BioAssay (NCI).

# run.description: NCI Yeast Anticancer Drug Screen. Data for the sgs1 mgt1 strain (AID 161);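 further: 0% = growth of cultures given vehicle only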
# conditions: S. cerevisiae sgs1 mgt1 strain, at 50.0 µM, hits give high values
This is part of a sample that, as a whole, favours compounds with a hit. Of some 79,000 tested, about 15% had one in any assay.
observable: growth inhibition (%)
Write down the numeric answer in % and omit the unit.

Lookup: Reported growth inhibition, compound C[N+]1(C)C2CC(O)CC1C1OC12 (stereo not given) : ____
Found: 1.45

Lookup: Any idea what its growth inhibition is? The compound is "O=S(=O)(F)c1ccccc1S(=O)(=O)Cl"
Found: 15.6

Lookup: Item "O=[N+]([O-])c1ccc(OCCOCCOc2ccc(S(=O)(=O)F)cc2)c(Cl)c1" has what recorded growth inhibition?
Found: 21.8

Lookup: Entry under review: "c1cc[n+]2c(c1)-c1cccc[n+]1CC2" . Reported growth inhibition?
Found: 52.7

Lookup: growth inhibition lookup needed for "O=C1CCC(=O)N1c1ccc([As](=O)(O)O)cc1" , thanks.
Found: 13.2

----------
# run.description: NCI Yeast Anticancer Drug Screen. Data for the sgs1 mgt1 strain (AID 161);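 further: 0% = growth of cultures given vehicle only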
# conditions: S. cerevisiae sgs1 mgt1 strain, at 50.0 µM, hits give high values
The panel holds about 79,000 compounds, 15% with a hit somewhere; the sample as a whole holds those more often.
observable: growth inhibition (%)
Field: numeric (%). Do not append units.

Lookup: Data request, read-out growth inhibition, for "Cc1nccc2c1[nH]c1ccccc12"
Found: -15.4

Lookup: Fill in the blank: the reported growth inhibition of "CC(C)OP(=O)(NC(=S)c1ccccc1)OC(C)C" is ____.
Found: 36.4

Lookup: Any idea what growth inhibition was measured for "O=C1C(Br)=C(N2CC2)C(=O)C(Br)=C1N1CC1" ?
Found: 90.5

Lookup: Which measured growth inhibition value corresponds to "Nc1cccc2ccccc12" ?
Found: 6.65

----------
# run.description: NCI Yeast Anticancer Drug Screen. Data for the cln2 rad14 strain (AID 165);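 further: 0% = growth equal to vehicle treated cultures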
# conditions: S. cerevisiae cln2 rad14 strain, at 50.0 µM, hits give high values
The panel holds about 79,000 compounds, 15% with a hit somewhere; the sample as a whole holds those more often.
observable: growth inhibition (%)
Give just the number in %; leave the unit off.

Lookup: So what's the measured growth inhibition for this one? COc1ccc(N2CC=C(c3ccccc3)OP2(=O)N(CCCl)CCCl)cc1 (stereo not drawn)
Found: 9.75

Lookup: What measured growth inhibition goes with CC(C)NC(=O)N1C2C3CCC(C)(OC3(C)C)C21 (stereo not drawn) ?
Found: -9.35

Lookup: Return reported growth inhibition; argument: Cc1ncc([N+](=O)[O-])n1C(C)C(=O)Nc1ccc(N(CCCl)CCCl)cc1 (stereo not drawn)
Found: -2.3

----------
# run.description: NCI Yeast Anticancer Drug Screen. Data for the cln2 rad14 strain (AID 165);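 further: 0% = growth equal to vehicle treated cultures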
# conditions: S. cerevisiae cln2 rad14 strain, at 50.0 µM, hits give high values
Compounds without any hit were thinned out: in the full panel of roughly 79,000, 15% have a hit.
// F strictly below 20% in growth inhibition; T otherwise

Lookup: // inclusive: growth inhibition at least 20%? input: "CCOP(=O)(OCC)/C(C#N)=C/c1cnc(C)[nH]1"
Found: T

Lookup: Given the entry CC[C@@H]1[C@H]2C[C@H]3[C@@H]4N(C)c5ccccc5[C@]45C[C@@H](C2[C@H]5O)N3[C@H]1O (stereo not given in full) , answer whether its growth inhibition meets or surpasses 20%.
Found: F

Lookup: Record "CCN=C=NCCCN(C)C" ; criterion: growth inhibition no lower than 20%. Met?
Found: F

Lookup: API: above_or_equal(metric=growth inhibition, cutoff=20%) for item Cc1ccc(SCC(CSCCO)OCn2cnc3c2NC(N)=NC32OCCO2)cc1 (stereo not given)
Found: F

Lookup: Identify whether the reported growth inhibition of the following molecule is 20% or greater: "O=S(=O)(F)c1ccccc1C[P+](c1ccccc1)(c1ccccc1)c1ccccc1"
Found: T

Lookup: // inclusive: growth inhibition at least 20%? input: CN1CCC(O)(c2ccc(Br)cc2)C(C(=O)c2ccc(Br)cc2)C1 (stereo not given)
Found: F

Lookup: Has "COc1cc(/C=N/NC(=O)CN(C)C)cc(OC)c1N(CCCl)CCCl" a recorded growth inhibition greater than or equal to 20%?
Found: F

Lookup: Answer whether growth inhibition of O=C(O)c1ccccc1/C=N\NC(=S)NC1CN2CCC1CC2 (stereo not given) is greater than or equal to 20%.
Found: F

Lookup: Has "Cc1cc(C)[c]([Hg][Cl])c(C)c1" a recorded growth inhibition greater than or equal to 20%?
Found: T

Lookup: For this molecule, is measured growth inhibition 20% or higher? COc1oc(C2C/C(=C/C(C)=C/C(C)=C/C(C)=C/c3ccc([N+](=O)[O-])cc3)CO2)c(C)c(=O)c1C (stereo not given)
Found: F

Lookup: Hi team, for "Clc1ccc([C@H]2N[C@@H]2c2ccccn2)cc1" , is the recorded growth inhibition at or above 20%?
Found: F

Lookup: Exam item: decide whether the reported growth inhibition for CCC1C(=O)OCC1Cc1cncn1C (stereo not given) is at least 20%.
Found: F

Lookup: Is the recorded value of growth inhibition equal to or greater than 20% for this molecule? C=CCNCC(O)c1ccccc1 (stereo not given)
Found: F

Lookup: Entry "CC(=O)CCC(=O)O" : is its growth inhibition no less than 20%?
Found: F

Lookup: Say whether "NC1C(=O)NC(=O)NC1=O" shows growth inhibition of 20% or more.
Found: F

Lookup: Quick check: does "N.N.N.N.O=C([O-])CCl.O=C([O-])CCl.[Co+3].[O-][Cl+3]([O-])([O-])[O-]" have growth inhibition greater than or equal to 20%?
Found: T

Lookup: Kindly determine if growth inhibition recorded for "C[P+]1(C)CCCCC1" is above or exactly 20%.
Found: F

Lookup: # check: growth inhibition of "Cc1cc2[nH]c3c(C#N)c(OC(=O)N(C)C)c(-c4ccccc4)c(=O)n3c2cc1C" is greater than or equal to 20%
Found: F

Lookup: Does growth inhibition meet or surpass 20% for "[N-]=[N+]=C1C(=O)NN=C1c1ccccc1" ?
Found: F

Lookup: Is growth inhibition for "O=[N+]([O-])c1cccc(C(Cl)Cl)c1" at or above 20%?
Found: T

Lookup: Kindly determine if growth inhibition recorded for "O=NNc1cnc2ccccc2n1" is above or exactly 20%.
Found: F

Lookup: Identify whether the reported growth inhibition of the following molecule is 20% or greater: O=C(O)CC(=O)O.[NH-]C1CCCCC1[NH-].[Pt+2] (stereo not given)
Found: T

Lookup: Quick check, growth inhibition >= 20%? "CN(C)C(=O)c1nnsc1NN=O"
Found: F

Lookup: growth inhibition >= 20% for "ClCCN(CCCl)c1ccc(/C=N/N=C2c3ccccc3-c3ccccc32)cc1" ?
Found: F

Lookup: Would you say "O=[N+]([O-])c1ccccc1CBr" shows growth inhibition at minimum 20%?
Found: T

Lookup: Kindly determine if growth inhibition recorded for "Cc1cc[n+](CCc2ccccc2)cc1" is above or exactly 20%.
Found: F

Lookup: Given "O=C=Nc1ccc(Cl)cc1" , state whether its growth inhibition is at least 20%.
Found: F

Lookup: State whether the measured growth inhibition reaches 20%, counting equality as reaching it, for CC(CCl)N1CCCCCC1 (stereo not given)
Found: F

Lookup: # check: growth inhibition of "[CH-]=C([CH2-])C.[Ni][Br].c1ccc([PH+](c2ccccc2)c2ccccc2)cc1" is greater than or equal to 20%
Found: F

Lookup: Tell me whether growth inhibition is at least 20% here: "[Pd].c1ccc([PH+](CC[PH+](c2ccccc2)c2ccccc2)c2ccccc2)cc1.c1ccc([PH+](CC[PH+](c2ccccc2)c2ccccc2)c2ccccc2)cc1"
Found: F

Lookup: Decide: is the reported value of growth inhibition for "C=CC(=O)OC(C)C" equal to or greater than 20%?
Found: F

Lookup: In plain terms: is recorded growth inhibition at least 20% for "Cc1ccc(NN=O)nc1" ?
Found: F

Lookup: I'd appreciate it if you could say whether CCCCCCCCCCCCCCCC(=O)OCC1OC(OC)C2NP(=O)(N(CCCl)CCCl)OC1C2O (stereo not given) has growth inhibition at least equal to 20%.
Found: F

Lookup: Could you tell me if the measured growth inhibition of "CC[C@@H](C)C(=O)O[C@H]1[C@H](O)[C@H]2[C@@H](CN3C[C@@H](C)CC[C@H]3[C@@]2(C)O)[C@@H]2C[C@]34O[C@]5(O)[C@@H](OC(=O)[C@@](C)(O)CC)CC[C@@]3(C)[C@@H]5[C@@H](OC(C)=O)[C@@H](OC(C)=O)[C@H]4[C@@]21O" reaches 20% or more?
Found: F

Lookup: hey, is growth inhibition for this one >= 20%? "O=[As](c1ccccc1)(c1ccccc1)c1ccc(Br)cc1"
Found: F

Lookup: hey, is growth inhibition for this one >= 20%? "CC[C@@]1(O)C(=O)OCc2c1cc1n(c2=O)Cc2cc3cc(OC)ccc3nc2-1"
Found: T

Lookup: Determine whether measured growth inhibition meets or exceeds 20% for NC(=O)Nc1ccc([As]=O)cc1 (stereo not given)
Found: F

Lookup: Confirm if growth inhibition reported for the molecule CCC1(C(C)=O)CN2CCc3cc(OC)c(OC)cc3C2N2CCc3ccc(OC)c(OC)c3C21 (stereo not given) is 20% or above.
Found: T

Lookup: Would you say "Nc1ccc(C(=O)O)c([As](O)O)c1" shows growth inhibition at minimum 20%?
Found: F

Lookup: hey, is growth inhibition for this one >= 20%? C=C1CC2C3CC=C4CC(OC(C)=O)CCC4(C)C3CCC2(C)C1=O (stereo not given)
Found: F

Lookup: Is growth inhibition at least 20%? Consider "CN1CN(c2ccccc2)C2(CCN(CCC3Oc4ccccc4O3)CC2)C1=O"
Found: F

Lookup: growth inhibition >= 20% for "N.N.N.N.O=N[O-].O=N[O-].[Cl-].[Co+3]" ?
Found: T

Lookup: Quick check, growth inhibition >= 20%? "C=[CH][Sn]([Cl])([Cl])[CH]=C.CN(C)P(=O)(N(C)C)N(C)C"
Found: T

Lookup: Is growth inhibition at least 20%? Consider "COc1ccc([N+](=O)[O-])cc1"
Found: T
